Value source: patent US7728107B2

Target: human 5-HT2A receptor (Homo sapiens, UniProt P28223)
Construct: expressed in transfected cells
Sequence (P28223 whole entry): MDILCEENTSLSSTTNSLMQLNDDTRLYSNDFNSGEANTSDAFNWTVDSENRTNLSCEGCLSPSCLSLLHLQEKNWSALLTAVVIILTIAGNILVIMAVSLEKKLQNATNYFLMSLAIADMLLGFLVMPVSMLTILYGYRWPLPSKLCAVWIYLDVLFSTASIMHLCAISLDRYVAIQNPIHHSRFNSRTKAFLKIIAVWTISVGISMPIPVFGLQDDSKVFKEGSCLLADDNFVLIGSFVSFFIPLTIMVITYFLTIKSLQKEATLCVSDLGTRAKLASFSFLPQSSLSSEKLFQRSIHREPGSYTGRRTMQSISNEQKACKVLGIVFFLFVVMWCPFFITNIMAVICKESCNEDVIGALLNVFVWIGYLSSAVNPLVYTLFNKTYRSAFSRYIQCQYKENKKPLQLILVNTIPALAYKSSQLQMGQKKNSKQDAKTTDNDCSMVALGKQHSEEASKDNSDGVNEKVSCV
Assay: cell-based
Format: cell-based
Observable: Rel. eff. h5-HT2A

Measured Rel. eff. h5-HT2A, `Clc1cccc(N2CCNCC2)c1` : 0.20 ± 0.02

* * *

Biological target: canine 5-HT2B receptor (Canis lupus familiaris)
Assay: biochemical
Conditions: canine 5-HT2B, transfected COS-7 membranes; read-out: KD of radioligand
Observable: pKd
pKd here: minus log base 10 of the concentration, concentration in moles per litre.

Measured pKd, CN1C[C@@H](NS(=O)(=O)N(C)C)C[C@@H]2c3cccc4c3c(cn4C)C[C@H]21 [[^3H]-mesulergine] : 8.27
